# Protocol summary: plasmodial surface anion channel blockers, osmotic lysis – cell-based, P. falciparum Indochina, OD700, 18 h, primary screen (AID 1157)
# Condition details: P. falciparum Indochina infected erythrocytes, osmotic lysis OD700, 18 h; higher = more signal, called active from +8 up or from −8 down
Recorded endpoint: z-score
Reply: number alone, nothing else.

Example entries begin here.
{"Molecule": "CC(C)C[C@@H]1NC(=O)[C@@H]2C[C@H](C(=O)NCCCCCCNC(=O)CS)[C@H](c3cccc(OCCO)c3)N2C1=O", "Recorded result": 0.792}
{"Molecule": "CCCCC(O)C1C=CC2C(=O)N(c3ccccc3)C(=O)C2N1Nc1ccccc1 (stereo not given)", "Recorded result": 1.17}
{"Molecule": "O=C1NC(=O)C2C1C=CC(C(O)c1ccc(B(O)O)cc1)N2Nc1ccc(Cl)cc1Cl (stereo not given)", "Recorded result": 0.654}

Ask: # return recorded z-score for entry Cc1ccc(S[C@]2(C(=O)NC3CC3)CC(=O)N(C(C)C)[C@@H]2c2ccc(CO)cc2I)cc1
Result: -1.31

Ask: # return recorded z-score for entry C=CCOC(=O)[C@@H]1[C@H]2C(=O)O[C@H](c3ccccc3)[C@H](c3ccccc3)N2[C@H](c2ccc(OCCOC(=O)[C@H]3C[C@H]4C(=O)N[C@@H](CCCCN(C)C)C(=O)N4[C@H]3c3ccc(O)cc3)cc2)[C@@]12C(=O)Nc1ccc(I)cc12
Result: -0.116

Ask: # return recorded z-score for entry COc1cc(C(O)C2C=CC3C(=O)N(c4ccccc4)C(=O)C3N2Nc2ccccc2)cc(OC)c1OC (stereo not given)
Result: 1.73

* * *

# Subject of test: Neurogenic locus notch homolog protein 2 (Homo sapiens) (UniProt Q04721)
# Sequence (Q04721 whole entry, looked up): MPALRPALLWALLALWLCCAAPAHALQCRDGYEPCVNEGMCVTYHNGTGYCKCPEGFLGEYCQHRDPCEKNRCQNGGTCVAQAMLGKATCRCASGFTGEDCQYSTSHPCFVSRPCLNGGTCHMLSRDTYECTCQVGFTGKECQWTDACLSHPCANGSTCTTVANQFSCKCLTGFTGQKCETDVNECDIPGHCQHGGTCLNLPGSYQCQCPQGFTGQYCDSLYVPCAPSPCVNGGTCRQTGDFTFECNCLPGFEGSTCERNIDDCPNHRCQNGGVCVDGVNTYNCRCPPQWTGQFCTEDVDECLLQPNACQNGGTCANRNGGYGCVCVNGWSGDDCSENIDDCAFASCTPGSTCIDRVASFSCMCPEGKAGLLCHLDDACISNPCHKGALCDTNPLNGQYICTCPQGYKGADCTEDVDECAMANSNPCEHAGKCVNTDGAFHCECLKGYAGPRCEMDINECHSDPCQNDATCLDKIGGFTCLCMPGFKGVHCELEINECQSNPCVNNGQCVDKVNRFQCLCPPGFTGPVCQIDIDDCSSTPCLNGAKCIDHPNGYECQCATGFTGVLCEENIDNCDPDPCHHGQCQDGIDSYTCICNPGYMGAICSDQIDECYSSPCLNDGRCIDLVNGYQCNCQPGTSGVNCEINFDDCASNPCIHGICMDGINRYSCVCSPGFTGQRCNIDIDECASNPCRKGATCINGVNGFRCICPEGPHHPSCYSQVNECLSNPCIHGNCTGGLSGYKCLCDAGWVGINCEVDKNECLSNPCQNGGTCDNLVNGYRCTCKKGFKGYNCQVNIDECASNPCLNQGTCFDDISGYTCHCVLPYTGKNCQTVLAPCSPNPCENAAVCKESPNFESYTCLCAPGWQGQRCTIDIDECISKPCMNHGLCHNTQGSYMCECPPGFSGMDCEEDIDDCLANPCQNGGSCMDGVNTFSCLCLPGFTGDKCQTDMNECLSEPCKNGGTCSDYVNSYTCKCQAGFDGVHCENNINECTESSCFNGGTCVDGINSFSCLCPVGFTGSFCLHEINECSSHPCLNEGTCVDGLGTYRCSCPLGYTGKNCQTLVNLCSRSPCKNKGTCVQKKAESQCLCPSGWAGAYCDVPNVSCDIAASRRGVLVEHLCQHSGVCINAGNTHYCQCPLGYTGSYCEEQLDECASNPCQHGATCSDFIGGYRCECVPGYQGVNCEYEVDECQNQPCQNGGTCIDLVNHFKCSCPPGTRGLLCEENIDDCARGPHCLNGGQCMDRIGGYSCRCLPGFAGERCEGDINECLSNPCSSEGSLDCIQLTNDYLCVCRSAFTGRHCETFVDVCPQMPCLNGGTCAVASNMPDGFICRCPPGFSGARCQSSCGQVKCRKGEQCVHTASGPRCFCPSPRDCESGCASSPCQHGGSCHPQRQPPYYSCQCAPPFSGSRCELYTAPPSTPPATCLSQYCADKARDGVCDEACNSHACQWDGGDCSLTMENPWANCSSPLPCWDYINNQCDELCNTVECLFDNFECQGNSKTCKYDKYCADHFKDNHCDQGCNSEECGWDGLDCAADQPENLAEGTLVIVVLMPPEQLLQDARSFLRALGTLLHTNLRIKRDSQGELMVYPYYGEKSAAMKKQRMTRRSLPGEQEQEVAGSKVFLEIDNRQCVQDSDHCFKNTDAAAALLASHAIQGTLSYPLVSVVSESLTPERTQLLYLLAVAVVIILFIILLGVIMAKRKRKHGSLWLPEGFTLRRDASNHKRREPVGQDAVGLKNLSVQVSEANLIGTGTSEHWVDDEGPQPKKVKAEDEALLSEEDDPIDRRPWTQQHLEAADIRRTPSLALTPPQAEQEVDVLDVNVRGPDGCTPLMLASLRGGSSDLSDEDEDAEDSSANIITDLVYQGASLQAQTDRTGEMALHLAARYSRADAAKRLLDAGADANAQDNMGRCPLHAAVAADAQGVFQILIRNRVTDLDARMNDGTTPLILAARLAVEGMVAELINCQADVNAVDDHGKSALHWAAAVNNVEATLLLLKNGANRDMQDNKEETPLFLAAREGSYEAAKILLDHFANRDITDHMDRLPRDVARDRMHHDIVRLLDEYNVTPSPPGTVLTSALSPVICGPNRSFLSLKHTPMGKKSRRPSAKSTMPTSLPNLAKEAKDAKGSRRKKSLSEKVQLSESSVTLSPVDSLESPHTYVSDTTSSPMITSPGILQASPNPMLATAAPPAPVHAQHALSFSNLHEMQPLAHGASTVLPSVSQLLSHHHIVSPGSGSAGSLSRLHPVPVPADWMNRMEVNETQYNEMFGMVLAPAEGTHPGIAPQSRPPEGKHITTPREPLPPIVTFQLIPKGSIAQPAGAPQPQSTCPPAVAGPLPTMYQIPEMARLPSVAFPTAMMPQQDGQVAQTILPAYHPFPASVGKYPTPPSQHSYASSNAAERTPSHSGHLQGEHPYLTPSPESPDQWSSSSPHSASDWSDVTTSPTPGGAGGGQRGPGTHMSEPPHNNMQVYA
# Protocol summary: small molecules binding Notch2 protein – biochemical, small-molecule microarray, 635 nm fluorescence, stem cell growth factors, primary screen (AID 1073)
# Condition details: higher = more signal
We begin with a simple list: items and their reported composite z-score.
Reply: number alone, nothing else.

Example entries begin here.
{"Molecule": "[N-]=[N+]=Nc1ccccc1C[C@@]1(C(=O)NCC(O)CO)N=C(c2ccc(OCCCO)cc2)O[C@@H]1c1ccccc1 (stereo partly drawn)", "Subject of test": "Neurogenic locus notch homolog protein 2 (Homo sapiens) (UniProt Q04721)", "composite z-score": 0.513}
{"Molecule": "COCCCNC(=O)[C@@]1(CCS(=O)(=O)c2ccccc2)COC(c2ccc(OCCCO)cc2)=N1", "Subject of test": "Neurogenic locus notch homolog protein 2 (Homo sapiens) (UniProt Q04721)", "composite z-score": 0.874}

Ask: # return recorded composite z-score for entry CC(C)[Si](C#CCCc1ccccc1)(O[C@H](c1ccccc1)c1cn(Cc2ccccc2)nn1)C(C)C
Result: 0.186

* * *

# Protocol summary: optical density change of DRC41 E. coli – strain DRC41, OD650, 24 h, E. coli filamentation project, primary screen (AID 1093);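 further: MC1000 strain lacking acrAB efflux and sulA so SOS filamentation is blocked; test concentration not given here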
# Condition details: E. coli DRC41 growth, higher = more signal, called active from +8 up or from −8 down
Recorded endpoint: z-score
Reply: number alone, nothing else.

{"Compound": "O=C1O[C@H](c2ccccc2)[C@H](c2ccccc2)N2[C@H]1[C@@H](C(=O)N1CCN(c3ncccn3)CC1)[C@]1(C(=O)Nc3ccc(C#CCCO)cc31)[C@H]2c1ccc(O)cc1", "Recorded endpoint": "z-score", "Recorded result": -0.778}

Ask: # return recorded z-score for entry COCCCNC(=O)[C@@]1(Sc2ccc(C)cc2)CC(=O)N(Cc2ccccc2C(F)(F)F)[C@@H]1c1ccc(CO)cc1I
Result: 0.217

Ask: # return recorded z-score for entry CN1C(=O)C2C(C1=O)C1C=C(c3ccc(CO)cc3)C2C(C2CC2)N1C (centres undefined)
Result: 0.689

Ask: # return recorded z-score for entry CCCNC(=O)[C@@]1(Sc2ccc(C)cc2)CC(=O)N(Cc2ccccc2Cl)[C@@H]1c1ccc(CO)cc1I
Result: 0.545

* * *

# Subject of test: Follistatin (Homo sapiens) (UniProt P19883)
# Sequence (P19883 whole entry, looked up): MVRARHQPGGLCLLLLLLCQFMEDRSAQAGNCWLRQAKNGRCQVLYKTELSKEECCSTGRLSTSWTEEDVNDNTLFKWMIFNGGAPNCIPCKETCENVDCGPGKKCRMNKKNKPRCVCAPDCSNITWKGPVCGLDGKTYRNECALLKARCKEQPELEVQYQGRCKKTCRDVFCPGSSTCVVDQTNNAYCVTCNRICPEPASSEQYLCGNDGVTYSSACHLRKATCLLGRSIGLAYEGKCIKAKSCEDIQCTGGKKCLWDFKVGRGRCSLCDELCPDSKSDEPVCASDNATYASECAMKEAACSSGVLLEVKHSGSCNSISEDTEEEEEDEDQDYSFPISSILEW
# Protocol summary: FST protein binding to printed compounds – biochemical, small-molecule microarray, 635/667 nm fluorescence, primary screen (AID 1132)
# Condition details: 635 nm fluorescence, higher = more signal
We begin with a simple list: items and their reported composite z-score.
Reply: number alone, nothing else.

Example entries begin here.
{"Compound": "CC(=O)NCCCC[C@@H]1NC(=O)[C@H]2C[C@@H](C(=O)NCCCCCCNC(=O)CS)[C@@H](c3cccc(OCCO)c3)N2C1=O", "Subject of test": "Follistatin (Homo sapiens) (UniProt P19883)", "composite z-score": 1.36}
{"Compound": "O=C(NCCN1CCOCC1)[C@@H]1c2ccccc2C(=O)N(Cc2ccc(OC(F)(F)F)cc2)[C@H]1c1ccc(CO)cc1", "Subject of test": "Follistatin (Homo sapiens) (UniProt P19883)", "composite z-score": 0.0596}
{"Compound": "CN(C)CCCC[C@@H]1NC(=O)[C@H]2C[C@@H](C(=O)O)[C@@H](c3ccc(O)cc3)N2C1=O", "Subject of test": "Follistatin (Homo sapiens) (UniProt P19883)", "composite z-score": 1.52}
{"Compound": "COC(=O)[C@@]1(Cc2ccc(OC)cc2)[C@H]2c3cc(C(=O)N4CCCC4)n(Cc4ccc(C(F)(F)F)nc4)c3C[C@H]2CN1C(=O)c1ccccc1", "Subject of test": "Follistatin (Homo sapiens) (UniProt P19883)", "composite z-score": 0.0995}
{"Compound": "CC1CC/C=C\\[C@H]2OC34C=CCN(c5ccc6ccccc6c5)C(=O)[C@H]3N(C(C)CO)C(=O)[C@@H]4C2C(=O)O1 (some centres undefined)", "Subject of test": "Follistatin (Homo sapiens) (UniProt P19883)", "composite z-score": -0.69}
{"Compound": "C#CCN1[C@@H](Cc2ccccc2)C(=O)O[C@H](Cc2ccccc2)[C@@H]1/C=C/C1CC1", "Subject of test": "Follistatin (Homo sapiens) (UniProt P19883)", "composite z-score": 1.27}

Ask: # return recorded composite z-score for entry NC(=O)N1C(=O)C2C(C1=O)C1C=C(CCCO)C2C(C2CC2)N1Cc1sc2ccccc2c1Cl (centres undefined)
Result: 0.539

Ask: # return recorded composite z-score for entry C[N+](C)(C)CCCC[C@@H]1NC(=O)[C@H]2C[C@@H](C(=O)NCCCCCNC(=O)CS)[C@@H](c3cccc(OCCO)c3)N2C1=O
Result: 0.78

Ask: # return recorded composite z-score for entry O=C1[C@H]2C=C(I)[C@H](C[C@@H]2OCCCCCCO)[C@@]12CO2
Result: 1.12

Ask: # return recorded composite z-score for entry C=CCC(OC(C)=O)[C@@H]1[C@@H](N(Cc2ccc(-c3ccccc3)cc2)C(=O)c2cccc3ccccc23)c2cc(OCCCO)ccc2N1C(=O)Cc1ccc(OC)cc1 (some centres undefined)
Result: 0.921

Ask: # return recorded composite z-score for entry CCOc1cc(C(O)C2C=CC3C(=O)N(c4ccccc4)C(=O)C3N2Nc2ccccc2F)ccc1O (centres undefined)
Result: 0.106

Ask: # return recorded composite z-score for entry C=C(C)[C@@H]1CC=C(C(O)C2C=CC3C(=O)N(C)C(=O)C3N2Nc2ccc([N+](=O)[O-])cc2[N+](=O)[O-])CC1 (some centres undefined)
Result: 1.24

Ask: # return recorded composite z-score for entry COc1ccc(C(O)C2C=CC3C(=O)N(C)C(=O)C3N2N(c2ccccc2)c2ccccc2)cc1 (centres undefined)
Result: 1.03

Ask: # return recorded composite z-score for entry O=C(O)[C@H](Cc1ccccc1)n1cc(C2(O)CCCCC2)nn1
Result: 0.142

* * *

# Protocol summary: probe aNog binding to arrayed compounds – biochemical, biotinylated probe, 635/667 nm fluorescence, primary screen (AID 1115);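 further: probe is biotinylated aNog protein used at 0.15 µg/mL for 1 h at 4 C; z-score combines 667 nm fluorescence of each spot with its signal to noise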
# Condition details: small-molecule microarray, higher = more signal
Recorded endpoint: composite z-score
Reply: number alone, nothing else.

{"Molecule": "COc1cc(CO)cc(I)c1O[C@H]1C=C(C(=O)NCCO)C[C@@H]2O[C@H]12", "composite z-score": -0.646}
{"Molecule": "COCCCN1C(=O)[C@@]2(c3ccc([N+](=O)[O-])cc3)CC(=O)N(CC34CC5CC(CC(C5)C3)C4)[C@@H]2c2ccc(CO)cc21", "composite z-score": -0.461}
{"Molecule": "COC(=O)C1=CC(CCCO)=CC(c2cccs2)N(Cc2cc3c(cc2Br)OCO3)C=C1C(=O)OC (centres undefined)", "composite z-score": -0.0381}

Now for another entry.
Ask: # return recorded composite z-score for entry COC(=O)[C@@]1(Cc2ccccc2)N=C(c2ccc(OCCCO)cc2)O[C@H]1c1ccccc1CN=[N+]=[N-]
Result: -0.593

* * *

# Protocol summary: S. pombe growth modifiers, basal conditions – strain 972, OD600, 24 h, no modulator, primary screen (AID 1090);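 further: basal condition with compound alone and no growth modifier present; test concentration not given here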
# Condition details: S. pombe 972 growth, higher = more signal, called active from +8 up or from −8 down
The source made the active and inactive calls.
Recorded endpoint: z-score

Example entries begin here.
{"Compound": "COCCOC(=O)N1C(=O)[C@@]2(c3cc(C#CCNC(N)=O)ccc31)[C@H](C(=O)Nc1nc3ccccc3s1)[C@H]1C(=O)O[C@H](c3ccccc3)[C@H](c3ccccc3)N1[C@@H]2c1ccccc1OCCO", "Recorded result": "1.81 (inactive)"}
{"Compound": "COC(=O)[C@@]1(Cc2ccccc2)[C@H]2c3cc(C(=O)N(C)C)n(CCSC(=N)N)c3C[C@H]2CN1C(=O)c1ccccc1", "Recorded result": "1.12 (inactive)"}
{"Compound": "CCOC(=O)C[C@H]1[C@H](OC(=O)c2ccccc2-c2ccccc2)[C@@H](NC(=O)c2ccc3ccccc3c2)c2cc(OCCCO)ccc2N1C(=O)Cc1ccc(OC)cc1", "Recorded result": "-0.446 (inactive)"}
{"Compound": "O=C1NC(=O)C2C1C=CC(C(O)c1ccc(B(O)O)cc1)N2Nc1ccc(Cl)cc1Cl (stereo not given)", "Recorded result": "-0.229 (inactive)"}

Now for another entry.
Ask: # return recorded z-score for entry COc1ccc(C(O)C2C=CC3C(=O)N(C)C(=O)C3N2N(c2ccccc2)c2ccccc2)cc1 (stereo not given)
Result: 0.733 (inactive)
